Cited source for all entries: PubChem BioAssay AID179

tested on: CEM cells HIV-1 protection, formazan growth assay; assay: NCI AIDS Antiviral Assay; conditions: measured here: growth of uninfected CEM cells
pIC50: −log10 of the molar value.
Below, each of the compounds is paired with its reported pIC50 value.

compound: COC(=O)c1cc(C(=CCCCCCBr)c2cc(Cl)c(OC)c(C(=O)OC)c2)cc(Cl)c1OC
value_prefix: <
pIC50: 5.32

compound: C=Cc1cc[n+](Cc2ccc(C[n+]3ccc(C=C)cc3)cc2)cc1
value_prefix: =
pIC50: 4.07

compound: O=C(O)c1ccc(O)c(N=Nc2cc(S(=O)(=O)O)c3cccnc3c2O)c1
value_prefix: =
pIC50: 3.65

compound: N#Cc1c[nH]n2ccnc12
value_prefix: <
pIC50: 3.70

compound: CC[n+]1c(/C=C/c2cc(C(=O)OC)n3c2sc2ccccc23)sc2ccccc21
value_prefix: =
pIC50: 4.96

compound: O=c1c2ccccc2oc2cc3c(c(O)c12)CCCC3
value_prefix: <
pIC50: 3.70

compound: Cc1ccc2nc3nc(C)c(C)nc3nc2c1
value_prefix: =
pIC50: 4.84

compound: CC1(C)CC(=O)C(CC(C(=O)C(=O)Nc2cc(C(F)(F)F)ccc2Cl)C(=O)c2ccco2)C(=O)C1 (stereo unspecified)
value_prefix: =
pIC50: 4.37

compound: CC(C)(C)OC(=O)NC(Cc1ccccc1)C(=O)OCN1C(=O)C2C3C=CC(C2C1=O)C1C2C(=O)N(COC(=O)C(Cc4ccccc4)NC(=O)OC(C)(C)C)C(=O)C2C31 (stereo unspecified)
value_prefix: =
pIC50: 4.81

compound: O=C1Cc2c(-c3ccccc3)cc(-c3ccc4ccccc4c3)nc2-c2ccccc2N1
value_prefix: =
pIC50: 4.29

compound: Cn1c(=O)cc(CC#N)c2ccccc21
value_prefix: <
pIC50: 3.70

compound: CC(C)(C)[Si](C)(C)OCC1OC(n2ccc(=O)[nH]c2=O)C(O[Si](C)(C)C(C)(C)C)[C@]12N[C@H](C(=O)O)CS2 (stereo partly specified)
value_prefix: =
pIC50: 4.97

compound: O=C(CC1C(=O)Nc2ccccc2S1(=O)=O)Nc1cc(Cl)ccc1Cl (stereo unspecified)
value_prefix: <
pIC50: 4.74

compound: Cc1ccc2nc3c(C)c(Cl)c(=O)cc-3sc2c1
value_prefix: =
pIC50: 4.79

compound: Cc1cc(N(CCC#N)CCC#N)ccc1/C(N=Nc1cccc(Cl)c1)=N/NC(=O)c1cc(Cl)ccc1O
value_prefix: =
pIC50: 4.93

compound: CC(=O)Nc1ccc(/C=C2\SC(=S)N(/C=C(\C(C)=O)C(N)=O)C2=O)cc1
value_prefix: =
pIC50: 4.14

compound: CC1(C)OC(=O)C(c2cccs2)C(=O)O1
value_prefix: <
pIC50: 4.35

compound: CN(C)c1ccc(N=Nc2cccc3ncccc23)cc1
value_prefix: =
pIC50: 4.14

compound: O=C1/C(=C/c2cccs2)NC(=S)N1CN1CCCC(CO)C1 (stereo unspecified)
value_prefix: =
pIC50: 4.35

compound: CC1=NN(C(=O)CC(=O)Nc2ccc(C)cc2)C(=O)C1N=Nc1ccc(C(=O)O)cc1 (stereo unspecified)
value_prefix: =
pIC50: 4.40

compound: COC(=O)C1(Cc2ccc3c(c2)CCC3)Cc2ccc3c(c2C1O)CCC3 (stereo unspecified)
value_prefix: =
pIC50: 4.91

====

test system: CEM cells HIV-1 protection, formazan growth assay; assay: NCI AIDS Antiviral Assay
pEC50: −log10 of the molar value. Where a SMILES comes first, the peptide text is derived from it. The star is where a group is joined. Cbz = O=C(OCc1ccccc1)*
quantity_measured: pEC50

compound: COP(=O)(OC)OC=C(Cl)Cl
tested_target: CEM cells HIV-1 protection, formazan growth assay
quantity_measured: pEC50
observed_result: < 3.70
//
compound: CCOC(=O)CCC(NC(=O)C(CC(=O)OC)NC(=O)OCc1ccccc1)C(=O)NC(CC(=O)OC)C(=O)NC(CCC(=O)OCC)C(=O)NC(CC(=O)OC)C(=O)NC(CCC(=O)OCC)C(=O)NC(CC(=O)OC)C(=O)NC(CCC(=O)OCC)C(=O)NC(CC(=O)OC)C(=O)NC(CCC(=O)OCC)C(=O)NC(CC(=O)OCC)C(=O)OCC (configuration not stated) (Cbz-D(OMe)E(OEt)D(OMe)E(OEt)D(OMe)E(OEt)D(OMe)E(OEt)D(OMe)E(OEt)D(OEt)-OEt; configuration not given here)
tested_target: CEM cells HIV-1 protection, formazan growth assay
quantity_measured: pEC50
observed_result: < 4.30
//
compound: CCN1C(=O)C(=O)C(CC)(CC)C1=O
tested_target: CEM cells HIV-1 protection, formazan growth assay
quantity_measured: pEC50
observed_result: < 3.70
//
compound: CCCC1(C)OC(=O)C(c2ccccc2)O1 (configuration not stated)
tested_target: CEM cells HIV-1 protection, formazan growth assay
quantity_measured: pEC50
observed_result: < 3.70
//
compound: CCOC(=O)c1nc2ccc(C(F)(F)F)cc2nc1Oc1cc(OC)c(OC)c(OC)c1
tested_target: CEM cells HIV-1 protection, formazan growth assay
quantity_measured: pEC50
observed_result: < 4.00
//
compound: N#C/C(=C\c1ccc(O)c(O)c1)C(=O)c1ccc(O)c(O)c1
tested_target: CEM cells HIV-1 protection, formazan growth assay
quantity_measured: pEC50
observed_result: < 3.70
//
compound: C1CSCCCSCCCSCCCSC1
tested_target: CEM cells HIV-1 protection, formazan growth assay
quantity_measured: pEC50
observed_result: < 4.47
//
compound: COC(=O)c1cc(C(c2cc(C(=O)OC)c(OC)c(Br)c2C)C(Cl)Cl)c(C)c(Br)c1OC
tested_target: CEM cells HIV-1 protection, formazan growth assay
quantity_measured: pEC50
observed_result: < 3.70
//
compound: CN=c1nc2sc3c(c2c(NC(=S)NC)s1)CCCC3
tested_target: CEM cells HIV-1 protection, formazan growth assay
quantity_measured: pEC50
observed_result: 4.11
//
compound: COC(=O)C(C)(C)C(OP(=S)(N(C)C)N(C)C)=C(C)C
tested_target: CEM cells HIV-1 protection, formazan growth assay
quantity_measured: pEC50
observed_result: < 4.65
//
compound: COc1cc([N+](=O)[O-])ccc1NC(=O)Nc1cc(C)ccn1
tested_target: CEM cells HIV-1 protection, formazan growth assay
quantity_measured: pEC50
observed_result: < 3.70
//
compound: COc1ccc(-n2cnc3c(NC(CCSC)C(=O)O)ncnc32)cc1 (configuration not stated)
tested_target: CEM cells HIV-1 protection, formazan growth assay
quantity_measured: pEC50
observed_result: 4.12

====

In this section we review reported EC50 values for a set of molecules.
system: CEM cells HIV-1 protection, formazan growth assay; experiment: NCI AIDS Antiviral Assay
quantity_measured: EC50

molecule: CC1Nc2c(ccc3ncccc23)C(=O)N1Nc1ccccc1 (configuration not stated)
tested_target: CEM cells HIV-1 protection, formazan growth assay
quantity_measured: EC50
observed_result: > 83.2 µM

molecule: COc1cc2c(c(OC)c1OC)C1CCCCC1SCC2=O (configuration not stated)
tested_target: CEM cells HIV-1 protection, formazan growth assay
quantity_measured: EC50
observed_result: > 155 µM

molecule: CCOP(=O)(CCn1cnc2c(N)ncnc21)OCC
tested_target: CEM cells HIV-1 protection, formazan growth assay
quantity_measured: EC50
observed_result: 178 µM

molecule: CCCCCCN(C(=O)Oc1ccccc1)C(C#N)c1ccccc1 (configuration not stated)
tested_target: CEM cells HIV-1 protection, formazan growth assay
quantity_measured: EC50
observed_result: > 200 µM

molecule: O=Cc1cc(O)c(O)c(O)c1-c1c(C=O)cc(O)c(O)c1O
tested_target: CEM cells HIV-1 protection, formazan growth assay
quantity_measured: EC50
observed_result: > 174 µM

molecule: C#CCCCOc1ncccn1
tested_target: CEM cells HIV-1 protection, formazan growth assay
quantity_measured: EC50
observed_result: > 200 µM

molecule: Cc1cc(NC(=O)C(=O)Cc2nc3ccccc3s2)ccc1Cl
tested_target: CEM cells HIV-1 protection, formazan growth assay
quantity_measured: EC50
observed_result: > 20.9 µM

====

tested on: CEM cells HIV-1 protection, formazan growth assay; experiment: NCI AIDS Antiviral Assay;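 active = compounds giving half or more protection of infected cells from virus-caused growth loss, again on retest; inactive = the rest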
Labels: active, inactive

molecule: Oc1cc(O)c2c(c1)OC(c1ccc(O)c(O)c1)C(OC1(c3cc(O)c(O)c(O)c3)Oc3cc(O)cc(O)c3C(O)C1O)C2 (configuration not stated)
tested_target: CEM cells HIV-1 protection, formazan growth assay
label_class: inactive
--
molecule: CC1(C)CC(N(C(=O)/C=C/c2ccc([N+](=O)[O-])o2)C2CCCCC2)CC(C)(C)N1
tested_target: CEM cells HIV-1 protection, formazan growth assay
label_class: inactive
--
molecule: OCC1CCCCN1Cc1nc2ccc(Cl)cc2[nH]1 (configuration not stated)
tested_target: CEM cells HIV-1 protection, formazan growth assay
label_class: inactive
--
molecule: Cc1[nH]c2ccccc2c1C(=O)CC1(O)C(=O)Nc2c(Cl)cc(Cl)cc21 (configuration not stated)
tested_target: CEM cells HIV-1 protection, formazan growth assay
label_class: inactive
--
molecule: c1ccc(CNc2nncc3[nH]cnc23)cc1
tested_target: CEM cells HIV-1 protection, formazan growth assay
label_class: inactive
--
molecule: COc1ccc(/C(=N/O)C(c2ccc(OC)cc2)C2C(=O)Oc3ccccc32)cc1 (configuration not stated)
tested_target: CEM cells HIV-1 protection, formazan growth assay
label_class: inactive
--
molecule: CSCCC(NOC(=O)Cc1ccccc1)P(=O)(O)c1ccccc1 (configuration not stated)
tested_target: CEM cells HIV-1 protection, formazan growth assay
label_class: active
--
molecule: O=[N+]([O-])C(=C(N1CCCCC1)N1CCCCC1)/C(Cl)=C(\Cl)Br
tested_target: CEM cells HIV-1 protection, formazan growth assay
label_class: inactive
--
molecule: O=c1onc2n1-c1cc(Cl)ccc1C(=S)N1CSCC21 (configuration not stated)
tested_target: CEM cells HIV-1 protection, formazan growth assay
label_class: inactive
--
molecule: CCOC(=O)C(C#N)C(C)CC (configuration not stated)
tested_target: CEM cells HIV-1 protection, formazan growth assay
label_class: inactive
--
molecule: Nc1nc2c(ncn2C2CC(CO)C(CO)C2)c(=O)[nH]1 (configuration not stated)
tested_target: CEM cells HIV-1 protection, formazan growth assay
label_class: inactive
--
molecule: COC1OC(C(=O)O)C2OC(C)(C)OC12 (configuration not stated)
tested_target: CEM cells HIV-1 protection, formazan growth assay
label_class: inactive
--
molecule: Cc1cc2c(C(C)C)c(O)c(O)c3coc(/c1=c1/c(C)cc4c(C(C)C)c(=O)c(=O)c5coc1c45)c32
tested_target: CEM cells HIV-1 protection, formazan growth assay
label_class: inactive
--
molecule: CC1(C)CC(=O)C2=C(C1)NC(=S)C(C#N)C2c1ccccc1 (configuration not stated)
tested_target: CEM cells HIV-1 protection, formazan growth assay
label_class: inactive
--
molecule: Cc1ccc(SSc2ccc([N+](=O)[O-])cc2[N+](=O)[O-])cc1
tested_target: CEM cells HIV-1 protection, formazan growth assay
label_class: inactive
--
molecule: C=C(CN(C)C)C(=O)c1ccccc1[N+](=O)[O-]
tested_target: CEM cells HIV-1 protection, formazan growth assay
label_class: inactive
--
molecule: Cc1nn(C(=O)c2ccc(Cl)cc2)c2c1C(c1cccc([N+](=O)[O-])c1)SC(N)=N2 (configuration not stated)
tested_target: CEM cells HIV-1 protection, formazan growth assay
label_class: inactive
--
molecule: O=S1(=O)CS(=O)(=O)OCCCCO1
tested_target: CEM cells HIV-1 protection, formazan growth assay
label_class: inactive
--
molecule: CNC(=O)OCC1=CC(=O)C=C(OC)C1=O
tested_target: CEM cells HIV-1 protection, formazan growth assay
label_class: inactive
--
molecule: N#Cc1c[nH]n2ccnc12
tested_target: CEM cells HIV-1 protection, formazan growth assay
label_class: inactive
--
molecule: O=C1N2Cc3c4ccc5c3CN3C(=O)N6Cc7c(ccc(c7CN1C6(c1ccccc1)C23c1ccccc1)OCCOCCNCCOCCO4)OCCOCCNCCOCCO5 (configuration not stated)
tested_target: CEM cells HIV-1 protection, formazan growth assay
label_class: inactive
